The entries below come with measured growth inhibition values attached.
- assay-info: NCI Yeast Anticancer Drug Screen. Data for the mec2-1 strain (AID 157)
- assay-setup: S. cerevisiae mec2-1 strain, at 50.0 µM, hits give high values
Compounds without any hit were thinned out: in the full panel of roughly 79,000, 15% have a hit. Activity calls are given as the source filed them. Rule as the data show it: active = growth inhibition above about 70%; inactive = the rest. Where a SMILES comes first, the peptide text is derived from it. [ ]: non-standard residue; d: D form. The star is where a group is joined. ξ: configuration not given here. ξV = CC(C)C(N)C(=O)O; ClAc = O=C(CCl)*

molecule: OCc1ccccc1OC1OC(CO)C(O)C(O)C1O (stereo unspecified)
growth inhibition: 2.6% (inactive)
//
molecule: C=CCNC(=O)C(O)C(O)C(=O)NCC=C (stereo unspecified)
growth inhibition: -32.5% (inactive)
//
molecule: C[C@]12CC[C@@H]3c4ccc(OS(N)(=O)=O)cc4CC[C@H]3[C@@H]1CCC2=O
growth inhibition: 8.15% (inactive)
//
molecule: N#C/C=C1\C=CC(O)C(O)C1OC1OC(CO)C(O)C(O)C1O (stereo unspecified)
growth inhibition: 7.3% (inactive)
//
molecule: CC1=NN(c2ccccc2)C(=O)/C1=C\c1ccc(N(CCC#N)CCC#N)cc1
growth inhibition: -4.95% (inactive)
//
molecule: COc1ccc(/C=C(\C#N)c2ccc(Cl)cc2)cc1OC
growth inhibition: -8% (inactive)
//
molecule: COc1ccc2c(c1)N(C(C)=O)CN1C(=O)CCC21 (stereo unspecified)
growth inhibition: 1.25% (inactive)
//
molecule: CCOC(=O)c1cc(C)nc2c1c(=O)n(-c1ccccc1)c(=O)n2CCCCN1CCN(c2ncccn2)CC1
growth inhibition: -32.4% (inactive)
//
molecule: Nc1ccccc1SC1CC(=O)N(c2cccc3ccccc23)C1=O (stereo unspecified)
growth inhibition: -7.6% (inactive)
//
molecule: CC(C)C(NC(=O)CNC(=O)CCl)C(=O)O (stereo unspecified) (ClAc-Gly-[ξV]-OH)
growth inhibition: -16.5% (inactive)
//
molecule: Clc1nc(Oc2ccccc2)nc(-c2cn(-c3ccccc3)c3ccccc23)n1
growth inhibition: -12.6% (inactive)
//
molecule: COC(=O)C(/C(=N/NC(N)=O)C(=O)Nc1ccc(C)cc1)c1nc2ccc([N+](=O)[O-])cc2[nH]c1=O (stereo unspecified)
growth inhibition: 26.3% (inactive)
//
molecule: CCCCCCCCCCCCCCCC(C)(C)O
growth inhibition: -27.6% (inactive)
//
molecule: Cc1cccc(C)c1NC(=S)N(C)C
growth inhibition: -7.3% (inactive)
//
molecule: Clc1cccc(Cl)c1Br
growth inhibition: -26.2% (inactive)
//
molecule: Clc1ccc(C2C3COc4ccccc4C3=NN2c2ccccc2)cc1 (stereo unspecified)
growth inhibition: -29.9% (inactive)
//
molecule: COc1cc(-c2cc(=O)c3ccc(O)cc3o2)cc(OC)c1OC
growth inhibition: -32.4% (inactive)
//
molecule: CC1=C2NCN(C)N=C2C(C#N)(C#N)C1(C#N)C#N
growth inhibition: 35.4% (inactive)
//
molecule: CCOc1ccc(N=c2ssc(SC)c2-c2ccccc2)cc1
growth inhibition: -10.8% (inactive)
//
molecule: CCCCCCCCCC(O)CC(=O)c1c(O)cccc1O (stereo unspecified)
growth inhibition: 77.2% (active)
//
molecule: COC(=O)C(C(=O)C(=O)Nc1c(C)cccc1C(C)(C)C)c1nc2ccc(Cl)cc2[nH]c1=O (stereo unspecified)
growth inhibition: -26.9% (inactive)
//
molecule: CC(C)=CC(O)C/C(C)=C/CC/C(C)=C/CCC1(C)C(CCCO)/C(=C(/C)C=O)CCC1(C)O (stereo unspecified)
growth inhibition: 4.75% (inactive)
//
molecule: CCOc1ccc(/C=N/NS(=O)(=O)c2ccc(C)cc2)cc1
growth inhibition: -34.5% (inactive)
//
molecule: COc1ccc(CCN2C(=O)CSC2=S)cc1OC
growth inhibition: -17.4% (inactive)
//
molecule: C=C1C(=O)O[C@@H]2C[C@@]3(C)CC(=O)C=C(C)[C@@H]3C[C@H]12
growth inhibition: -7.15% (inactive)
//
molecule: O=C1c2ccccc2C(=O)c2c1cccc2N1C(=O)C=CC1=O
growth inhibition: 37.9% (inactive)
//
molecule: Nc1ccc2[nH]c(-c3ccccc3)cc(=O)c2c1
growth inhibition: -33.8% (inactive)
//
molecule: Cc1ccccc1Nc1n[nH]c(=S)s1
growth inhibition: 17.8% (inactive)
//
molecule: COc1ccc(/C(C#N)=C2C=C(Cl)/C(=N/O)C=C/2Cl)cc1
growth inhibition: -7.45% (inactive)
//
molecule: COc1ccc(NCc2ccc(C)cc2)cc1
growth inhibition: -17.1% (inactive)
//
molecule: CCC(=O)CC1CCCC(CC(=O)CC)N1C (stereo unspecified)
growth inhibition: -2.55% (inactive)
//
molecule: CCCCCCCCCCCCOc1ccccc1
growth inhibition: -14.3% (inactive)
//
molecule: CCOC(=O)NC(C)(C)CN(C(=O)OCC)c1ccccc1
growth inhibition: -39.6% (inactive)
//
molecule: O=C(O)CCCC(=O)Nn1c(Cc2ccc(Cl)cc2)n[nH]c1=O
growth inhibition: -13.1% (inactive)
//
molecule: CCOc1ccc(Br)cc1C=O
growth inhibition: 17.4% (inactive)
//
molecule: CC(C)CCCC(C)[C@H]1CC[C@H]2[C@@H]3CC[C@H]4C[C@@H](CCC=C(c5cc(Cl)c(O)c(C(=O)O)c5)c5cc(Cl)c(O)c(C(=O)O)c5)CC[C@]4(C)[C@H]3CC[C@]12C (stereo partly specified) (tested in a mixture with another compound)
growth inhibition: 22.4% (inactive)
//
molecule: COc1cc(/C=N\NC(=O)OC(C)(C)C)cc(OC)c1OC
growth inhibition: -17.4% (inactive)
//
molecule: COC(=O)c1cc(NC(=O)CC(=O)c2cccc(N)c2)cc(C(=O)OC)c1
growth inhibition: -12.8% (inactive)
//
molecule: CC1=NN(c2ccccc2)C(=O)C1CCC#N (stereo unspecified)
growth inhibition: -12.9% (inactive)
//
molecule: COc1ccc(C(CCl)(CCl)c2ccc(OC)c(N)c2)cc1N
growth inhibition: 14% (inactive)
//
molecule: O=C1NC(=O)C(c2ccccc2)(C2CCC2)N1 (stereo unspecified)
growth inhibition: -33.1% (inactive)
//
molecule: O=S(=O)(O)c1cccc2cccc(Cl)c12
growth inhibition: -7.4% (inactive)
//
molecule: C=C1CCN(c2ccccc2)C1=O
growth inhibition: -2.6% (inactive)
//
molecule: Cc1ccc(COC(=O)c2cccnc2)cc1
growth inhibition: -18.6% (inactive)
//
molecule: Cc1ccc2c(sc(-c3ccc4c(c3)sc(-c3ccc5c(c3)sc(-c3ccc(N(C)C)cc3)[n+]5C)[n+]4C)[n+]2C)c1S(=O)(=O)O (tested in a mixture with another compound)
growth inhibition: 22.3% (inactive)
//
molecule: O=C(O)c1ccccc1C(=O)NNC(=O)c1ccccc1C(=O)O
growth inhibition: -5.3% (inactive)
